- Tested on: ID8 Trp53–/–;Brca2–/– mouse cells
- MEASUREMENT DESCRIPTION: Cell viability (WST-1) of ID8 cells
- Type: cell-based
- MEASUREMENT SETUP: ID8 Trp53–/–;Brca2–/– PARPi-sensitive cells, olaparib alone
OBSERVATION TYPE: IC50 (nM)

>  <STRUCTURE NOTATION>
O=C(c1cc(Cc2n[nH]c(=O)c3ccccc23)ccc1F)N1CCN(C(=O)C2CC2)CC1

>  <OBSERVED RESULT>
2000

$$$$

====

- MEASUREMENT DESCRIPTION: Pharmacokinetics in CD-1 mice
- Type: in vivo
- MEASUREMENT SETUP: male, mouse, plasma, 15 mg/kg IV, 50 mg/kg PO (n=3)

>  <COMPOUND>
[2H]C([2H])([2H])N(C(=O)Oc1c(N2CCN(CC(O)CN(C)C)C2=O)cc(C(F)(F)F)cc1C(F)(F)F)c1ccc(F)cc1 (centres unmarked)

>  <QUANTITY UNIT>
%

>  <bioavailability>
99

$$$$
>  <COMPOUND>
[2H]C([2H])([2H])N(C(=O)Oc1c(N2CCN(C[C@@H](O)CN(C)C)C2=O)cc(C(F)(F)F)cc1C(F)(F)F)c1ccc(F)cc1

>  <QUANTITY UNIT>
%

>  <bioavailability>
107

$$$$
